Origin of the recorded values: ChEMBL document CHEMBL1139811

# Target of assay: Mycobacterial beta-ketoacyl-[acyl-carrier-protein] synthase III (Mycobacterium tuberculosis)
# Sequence (P9WNG3 whole entry): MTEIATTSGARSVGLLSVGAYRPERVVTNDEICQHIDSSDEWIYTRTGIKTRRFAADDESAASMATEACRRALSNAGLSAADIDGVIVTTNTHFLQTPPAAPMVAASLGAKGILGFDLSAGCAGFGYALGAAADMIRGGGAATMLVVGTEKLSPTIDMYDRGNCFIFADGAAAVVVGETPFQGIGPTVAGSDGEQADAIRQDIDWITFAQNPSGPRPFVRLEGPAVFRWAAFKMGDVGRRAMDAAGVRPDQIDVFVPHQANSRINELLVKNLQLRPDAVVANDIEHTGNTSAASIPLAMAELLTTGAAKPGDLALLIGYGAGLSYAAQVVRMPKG
Quantity: IC50
Answer format reminder: number followed by unit.

Consider the worked cases shown below.
CC(=O)c1ccc(-c2ccc(CC3(C)SC(=O)C(C)=C3O)cc2)cc1 (stereo not given); 54 µM
CC1=C(O)C(C)(Cc2ccc(-c3ccc(F)cc3)cc2)SC1=O (stereo not given); 105 µM
CC1=C(O)C(C)(Cc2ccc(C(=O)c3ccccc3)cc2)SC1=O (stereo not given); 283 µM
CC1=C(O)C(C)(Cc2ccc(-c3ccc(Cl)cc3)cc2)SC1=O (stereo not given); 130 µM
CC(=O)c1ccc(-c2ccc(CC3(C)SC(=O)C(C)=C3O)cc2)s1 (stereo not given); 200 µM
CC1=C(O)C(C)(Cc2ccc(-c3ccc(F)c(F)c3)cc2)SC1=O (stereo not given); 207 µM
CC1=C(O)C(C)(Cc2ccc(-c3cccc(Cl)c3)cc2)SC1=O (stereo not given); 156 µM
CC(=O)c1cccc(-c2ccc(CC3(C)SC(=O)C(C)=C3O)cc2)c1 (stereo not given); 150 µM
CC1=C(O)C(C)(Cc2ccc(-c3ccc(C(=O)O)cc3)cc2)SC1=O (stereo not given); 7 µM
CC1=C(O)C(C)(Cc2ccc(-c3cc(F)cc(F)c3)cc2)SC1=O (stereo not given); 135 µM

I have this molecule here, CC1=C(O)C(C)(Cc2ccc(Oc3ccccc3)cc2)SC1=O (stereo not given) , and I need its recorded IC50.
15 µM

I have this molecule here, CC1=C(O)C(C)(Cc2ccc(-c3ccc(C(N)=O)cc3)cc2)SC1=O (stereo not given) , and I need its recorded IC50.
4 µM

I have this molecule here, CC1=C(O)C(C)(Cc2ccc(-c3ccc(C)s3)cc2)SC1=O (stereo not given) , and I need its recorded IC50.
86 µM

I have this molecule here, COC(=O)c1ccc(-c2ccc(CC3(C)SC(=O)C(C)=C3O)cc2)cc1 (stereo not given) , and I need its recorded IC50.
3 µM

I have this molecule here, CC1=C(O)C(C)(Cc2ccc(-c3ccc(-c4ccccc4)cc3)cc2)SC1=O (stereo not given) , and I need its recorded IC50.
68 µM
